// data source = patent US9969775B2

- tgt: hAM2 receptor (CALCRL:RAMP3) (Homo sapiens, UniProt O60896+Q16602)
- Construct: expressed in transfected cells; host or cells: GeneBLAzer CALCRL:RAMP3-CRE-bla Freestyle 293F
- Sequence (Q16602 23-461): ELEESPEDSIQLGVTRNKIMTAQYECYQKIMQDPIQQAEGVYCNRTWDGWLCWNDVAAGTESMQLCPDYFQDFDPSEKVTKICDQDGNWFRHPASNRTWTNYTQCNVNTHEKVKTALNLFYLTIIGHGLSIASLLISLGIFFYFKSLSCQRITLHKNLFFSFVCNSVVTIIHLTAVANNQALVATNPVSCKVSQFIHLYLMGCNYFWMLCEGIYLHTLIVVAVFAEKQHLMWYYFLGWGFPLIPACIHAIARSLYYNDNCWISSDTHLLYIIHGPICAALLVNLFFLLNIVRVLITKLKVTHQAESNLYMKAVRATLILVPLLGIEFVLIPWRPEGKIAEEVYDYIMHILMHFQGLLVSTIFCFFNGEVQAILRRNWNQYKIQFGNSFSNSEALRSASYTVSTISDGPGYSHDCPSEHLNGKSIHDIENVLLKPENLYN
- Sequence (O60896 24-148): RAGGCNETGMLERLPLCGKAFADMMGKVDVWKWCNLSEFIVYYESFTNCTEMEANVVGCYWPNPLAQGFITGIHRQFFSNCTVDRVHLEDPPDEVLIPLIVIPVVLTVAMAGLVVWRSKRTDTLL
- assay.comment: AM2 receptor antagonist activity measured by cAMP assay (HTRF)
- Assay type: cell-based
- assay.setup: GeneBLAzer CALCRL:RAMP3-CRE-bla Freestyle 293F cells; agonist human adrenomedullin; read-out: hAM2-R IC50 Ave
Bridge positions count the residues as written; N and C are the ends. Square brackets hold non-standard residues; d marks the D form. Peptide text beside a SMILES is read from it. * marks the point of attachment. Phe(3-CONH2) = NC(=O)c1cccc(C[C@H](N)C(=O)O)c1; Phe(2-CONH2) = NC(=O)c1ccccc1C[C@H](N)C(=O)O; Phe(4-NH2) = Nc1ccc(C[C@H](N)C(=O)O)cc1; Picolinoyl(3,5-F2) = O=C(c1ncc(F)cc1F)*; Picolinoyl(5-F) = O=C(c1ccc(F)cn1)*; Lys(Me2) = CN(C)CCCC[C@H](N)C(=O)O; Orn(iPr) = CC(C)NCCC[C@H](N)C(=O)O; Oxazole2carbonyl = O=C(c1ncco1)*; 3Pal = N[C@@H](Cc1cccnc1)C(=O)O; ΔPro = O=C(O)[C@@H]1C=CCN1; Orn = NCCC[C@H](N)C(=O)O; X6 = O=C(c1ccncn1)*
attribute.measured: pIC50
Kindly note that pIC50 refers to -log10 of the concentration in mol/L and answer with the value alone.

Param item = CC(C)NCCC[C@@H]1NC(=O)[C@@H](NC(=O)[C@H](Cc2ccccc2C(N)=O)NC(=O)[C@H](NC(=O)c2ccc(F)cn2)C(C)C)CSSC[C@@H](C(=O)N[C@@H](Cc2cccnc2)C(N)=O)NC(=O)[C@H](Cc2ccccc2C(N)=O)NC(=O)[C@@H]2C=CCN2C(=O)CNC(=O)[C@H](C(C)C)NC(=O)[C@H](CC(=O)O)NC1=O [Compound 66] ({Picolinoyl(5-F)}-[dV][Phe(2-CONH2)]C[Orn(iPr)]DVG[ΔPro][Phe(2-CONH2)]C[3Pal]-NH2; disulfide 3-10) ; retrieve measured pIC50.
7.08

Param item = CC(C)NCCC[C@@H]1NC(=O)[C@@H](NC(=O)[C@H](Cc2ccccc2C(N)=O)NC(=O)[C@H](NC(=O)c2ncco2)C(C)C)CSSC[C@@H](C(=O)N[C@@H](Cc2cccnc2)C(N)=O)NC(=O)[C@H](Cc2ccc(N)cc2)NC(=O)[C@@H]2C=CCN2C(=O)CNC(=O)[C@H](C(C)C)NC(=O)[C@H](CC(=O)O)NC1=O [Compound 59] (Oxazole2carbonyl-[dV][Phe(2-CONH2)]C[Orn(iPr)]DVG[ΔPro][Phe(4-NH2)]C[3Pal]-NH2; disulfide 3-10) ; retrieve measured pIC50.
6.33

Param item = CC(C)[C@@H]1NC(=O)[C@H](CC(=O)O)NC(=O)[C@H](CCCNC(=N)N)NC(=O)[C@@H](NC(=O)[C@H](Cc2ccc(O)cc2)NC(=O)[C@H](NC(=O)c2ncc(F)cc2F)C(C)C)CSSC[C@@H](C(=O)N[C@@H](Cc2cccnc2)C(N)=O)NC(=O)[C@H](Cc2ccccc2)NC(=O)[C@@H]2CCCN2C(=O)CNC1=O [Compound 35] ({Picolinoyl(3,5-F2)}-[dV]YCRDVGPFC[3Pal]-NH2; disulfide 3-10) ; retrieve measured pIC50.
7.48

Param item = CC(C)NCCC[C@@H]1NC(=O)[C@@H](NC(=O)[C@H](Cc2ccc(O)cc2)NC(=O)[C@H](NC(=O)c2ccc(F)cn2)C(C)C)CSSC[C@@H](C(=O)N[C@@H](Cc2cccnc2)C(N)=O)NC(=O)[C@H](Cc2cccc(C(N)=O)c2)NC(=O)[C@@H]2C=CCN2C(=O)CNC(=O)[C@H](C(C)C)NC(=O)[C@H](CC(=O)O)NC1=O [Compound 68] ({Picolinoyl(5-F)}-[dV]YC[Orn(iPr)]DVG[ΔPro][Phe(3-CONH2)]C[3Pal]-NH2; disulfide 3-10) ; retrieve measured pIC50.
7.74

Param item = CC(C)[C@@H]1NC(=O)[C@H](CC(=O)O)NC(=O)[C@H](CCCNC(=O)[C@@H](N)CCCCN(C)C)NC(=O)[C@@H](NC(=O)[C@H](Cc2ccc(O)cc2)NC(=O)[C@H](NC(=O)c2ccncn2)C(C)C)CSSC[C@@H](C(=O)N[C@@H](Cc2cccnc2)C(N)=O)NC(=O)[C@H](Cc2ccccc2)NC(=O)[C@@H]2CCCN2C(=O)CNC1=O [Compound 45] (X6-[dV]YC[Orn](Lys(Me2))DVGPFC[3Pal]-NH2; disulfide 3-10) ; retrieve measured pIC50.
6.70

====

- tgt: hAM2 receptor (CALCRL:RAMP3) (Homo sapiens, UniProt O60896+Q16602)
- Construct: expressed in transfected cells; host or cells: GeneBLAzer CALCRL:RAMP3-CRE-bla Freestyle 293F
- assay.comment: AM2 receptor antagonist activity measured by cAMP assay (HTRF)
- Type: cell-based
- assay.setup: selectivity ratio for hCGRP over hAM2, calculated from the IC50 values
Numbered stars: 1 amine (or outer) side, 2 acyl side, 3 side chain; on linkers, the order of the positions; unused ones are H or OH. Bridge positions count the residues as written; N and C are the ends. Square brackets hold non-standard residues; d marks the D form. Peptide text beside a SMILES is read from it. * marks the point of attachment. Phe(3-CH2NH2) = O=C([C@H](Cc1cccc(CN[*:3])c1)N[*:1])[*:2]; Phe(2-CONH2) = NC(=O)c1ccccc1C[C@H](N)C(=O)O; Phe(4-CH2NH2) = NCc1ccc(C[C@H](N)C(=O)O)cc1; X5 = O=C([C@H](Cc1ccc(CO)cc1)N[*:1])[*:2]; Phe(4-NH2) = Nc1ccc(C[C@H](N)C(=O)O)cc1; Lys(iPr) = CC(C)NCCCC[C@H](N)C(=O)O; Picolinoyl(5-F) = O=C(c1ccc(F)cn1)*; Orn(iPr) = CC(C)NCCC[C@H](N)C(=O)O; Orn(Me2) = CN(C)CCC[C@H](N)C(=O)O; Benzoyl(4-F) = O=C(c1ccc(F)cc1)*; Oxazole2carbonyl = O=C(c1ncco1)*; 3Pal = N[C@@H](Cc1cccnc1)C(=O)O; Picolinoyl = O=C(c1ccccn1)*; ΔPro = O=C(O)[C@@H]1C=CCN1; X1 = O=C(c1ncccc1F)*
Record form. Attribute: selectivity ratio CGRP/AM2. Fill in for each entry.

Param item = CC(C)[C@@H]1NC(=O)[C@H](CC(=O)O)NC(=O)[C@H](CCCNC(=N)N)NC(=O)[C@@H](NC(=O)[C@H](Cc2ccc(O)cc2)NC(=O)[C@H](NC(=O)c2ccc(F)cc2)C(C)C)CSSC[C@@H](C(=O)N[C@@H](Cc2cccnc2)C(N)=O)NC(=O)[C@H](Cc2ccc(CN)cc2)NC(=O)[C@@H]2CCCN2C(=O)CNC1=O [Compound 20] ({Benzoyl(4-F)}-[dV]YCRDVGP[Phe(4-CH2NH2)]C[3Pal]-NH2; disulfide 3-10) ; retrieve measured selectivity ratio CGRP/AM2.
309

Param item = CC(C)NCCC[C@@H]1NC(=O)[C@@H](NC(=O)[C@H](Cc2ccccc2C(N)=O)NC(=O)[C@H](NC(=O)c2ncco2)C(C)C)CSSC[C@@H](C(=O)N[C@@H](Cc2cccnc2)C(N)=O)NC(=O)[C@H](Cc2ccc(N)cc2)NC(=O)[C@@H]2C=CCN2C(=O)CNC(=O)[C@H](C(C)C)NC(=O)[C@H](CC(=O)O)NC1=O [Compound 59] (Oxazole2carbonyl-[dV][Phe(2-CONH2)]C[Orn(iPr)]DVG[ΔPro][Phe(4-NH2)]C[3Pal]-NH2; disulfide 3-10) ; retrieve measured selectivity ratio CGRP/AM2.
2770

Param item = CC(C)[C@@H]1NC(=O)[C@H](CC(=O)O)NC(=O)[C@H](CCCNC(=N)N)NC(=O)[C@@H](NC(=O)[C@H](Cc2cccc(CN)c2)NC(=O)[C@H](NC(=O)c2ccc(F)cc2)C(C)C)CSSC[C@@H](C(=O)N[C@@H](Cc2cccnc2)C(N)=O)NC(=O)[C@H](Cc2ccc(O)cc2)NC(=O)[C@@H]2C=CCN2C(=O)CNC1=O [Compound 22] ({Benzoyl(4-F)}-[dV][Phe(3-CH2NH2)]CRDVG[ΔPro]YC[3Pal]-NH2; disulfide 3-10) ; retrieve measured selectivity ratio CGRP/AM2.
175

Param item = CC(C)[C@@H]1NC(=O)[C@H](CC(=O)O)NC(=O)[C@H](CCCNC(=N)N)NC(=O)[C@@H](NC(=O)[C@H](Cc2ccc(O)cc2)NC(=O)[C@H](NC(=O)c2ccc(F)cc2)C(C)C)CSSC[C@@H](C(=O)N[C@@H](Cc2cccnc2)C(N)=O)NC(=O)[C@H](Cc2ccccc2)NC(=O)[C@@H]2CCCN2C(=O)CNC1=O [Compound 1] ({Benzoyl(4-F)}-[dV]YCRDVGPFC[3Pal]-NH2; disulfide 3-10) ; retrieve measured selectivity ratio CGRP/AM2.
362

Param item = CC(C)NCCC[C@@H]1NC(=O)[C@@H](NC(=O)[C@H](Cc2ccc(O)cc2)NC(=O)[C@H](NC(=O)c2ccccn2)C(C)C)CSSC[C@@H](C(=O)N[C@@H](Cc2cccnc2)C(N)=O)NC(=O)[C@H](Cc2ccc(CO)cc2)NC(=O)[C@@H]2CCCN2C(=O)CNC(=O)[C@H](C(C)C)NC(=O)[C@H](CC(=O)O)NC1=O [Compound 55] (Picolinoyl-[dV]YC[Orn(iPr)]DVGP[X5]C[3Pal]-NH2; disulfide 3-10) ; retrieve measured selectivity ratio CGRP/AM2.
746

Param item = CC(C)NCCCC[C@@H]1NC(=O)[C@@H](NC(=O)[C@H](Cc2ccccc2C(N)=O)NC(=O)[C@H](NC(=O)c2ncco2)C(C)C)CSSC[C@@H](C(=O)N[C@@H](Cc2cccnc2)C(N)=O)NC(=O)[C@H](Cc2cccnc2)NC(=O)[C@@H]2CCCN2C(=O)CNC(=O)[C@H](C(C)C)NC(=O)[C@H](CC(=O)O)NC1=O [Compound 41] (Oxazole2carbonyl-[dV][Phe(2-CONH2)]C[Lys(iPr)]DVGP[3Pal]C[3Pal]-NH2; disulfide 3-10) ; retrieve measured selectivity ratio CGRP/AM2.
8075

Param item = CC(C)[C@@H]1NC(=O)[C@H](CC(=O)O)NC(=O)[C@H](CCCN(C)C)NC(=O)[C@@H](NC(=O)[C@H](Cc2ccc(O)cc2)NC(=O)[C@H](NC(=O)c2ncccc2F)C(C)C)CSSC[C@@H](C(=O)N[C@@H](Cc2cccnc2)C(N)=O)NC(=O)[C@H](Cc2ccccc2)NC(=O)[C@@H]2CCCN2C(=O)CNC1=O [Compound 46] (X1-[dV]YC[Orn(Me2)]DVGPFC[3Pal]-NH2; disulfide 3-10) ; retrieve measured selectivity ratio CGRP/AM2.
1189

Param item = CC(C)[C@@H]1NC(=O)[C@H](CC(=O)O)NC(=O)[C@H](CCCNC(=N)N)NC(=O)[C@@H](NC(=O)[C@H](Cc2ccccc2C(N)=O)NC(=O)[C@H](NC(=O)c2ccc(F)cc2)C(C)C)CSSC[C@@H](C(=O)N[C@@H](Cc2cccnc2)C(N)=O)NC(=O)[C@H](Cc2ccccc2)NC(=O)[C@@H]2CCCN2C(=O)CNC1=O [Compound 15] ({Benzoyl(4-F)}-[dV][Phe(2-CONH2)]CRDVGPFC[3Pal]-NH2; disulfide 3-10) ; retrieve measured selectivity ratio CGRP/AM2.
610

Param item = CC(C)NCCC[C@@H]1NC(=O)[C@@H](NC(=O)[C@H](Cc2ccccc2C(N)=O)NC(=O)[C@H](NC(=O)c2ccc(F)cn2)C(C)C)CSSC[C@@H](C(=O)N[C@@H](Cc2cccnc2)C(N)=O)NC(=O)[C@H](Cc2cccnc2)NC(=O)[C@@H]2C=CCN2C(=O)CNC(=O)[C@H](C(C)C)NC(=O)[C@H](CC(=O)O)NC1=O [Compound 38] ({Picolinoyl(5-F)}-[dV][Phe(2-CONH2)]C[Orn(iPr)]DVG[ΔPro][3Pal]C[3Pal]-NH2; disulfide 3-10) ; retrieve measured selectivity ratio CGRP/AM2.
1478
